B1: library; numbered along this chain (parent)
chain: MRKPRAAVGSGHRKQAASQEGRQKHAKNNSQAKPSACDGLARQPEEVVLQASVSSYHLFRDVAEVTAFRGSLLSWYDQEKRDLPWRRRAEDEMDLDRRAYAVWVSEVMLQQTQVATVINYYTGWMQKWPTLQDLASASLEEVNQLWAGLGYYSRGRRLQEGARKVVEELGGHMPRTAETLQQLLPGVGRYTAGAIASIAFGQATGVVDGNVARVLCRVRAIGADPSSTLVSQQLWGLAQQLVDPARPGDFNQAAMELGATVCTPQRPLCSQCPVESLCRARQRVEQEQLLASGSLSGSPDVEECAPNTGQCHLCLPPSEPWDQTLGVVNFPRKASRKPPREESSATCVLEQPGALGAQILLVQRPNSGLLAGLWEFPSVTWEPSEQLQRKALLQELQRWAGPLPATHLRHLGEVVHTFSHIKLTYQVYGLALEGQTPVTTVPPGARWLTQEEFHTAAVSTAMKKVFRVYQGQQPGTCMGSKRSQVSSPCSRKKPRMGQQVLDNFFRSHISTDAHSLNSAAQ

# Variants of: B1
# test_description: 8OG:A repair function score (normalized; synonymous = 0, nonsense = -1) (normalized log-likelihood score); higher = more repair activity (WT-like);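 note: cells sorted at 72 h after reporter transfection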
# condition_set: with 8OG:A DNA repair reporter (GFP) in HEK-293 MUTYH KO cells
Use YES when the recorded 8OG:A repair function score is no lower than -0.006; use NO when it is lower.

Consider the worked cases shown below.
K463Q = NO
A445Q = NO
L516Q = YES

Could you please find out whether A371V has 8OG:A repair function score that meets -0.006 or exceeds it?
NO

Could you please find out whether W128A has 8OG:A repair function score that meets -0.006 or exceeds it?
NO

Could you please find out whether D94A has 8OG:A repair function score that meets -0.006 or exceeds it?
NO
